target: HLA-C*04:01; experiment: thermal melting temperature (Tm) of peptide-HLA complex; higher = more thermostable pHLA complex; conditions: C1R-A*02:01

input-sequence | unit-spec | thermal melting temperature
SFDPSRTF | °C | 53.7
FTDEESRVF | °C | 48.1
DFDMTLSRF | °C | 52.8
AFDVHLNAF | °C | 55.5
NYDEHISNF | °C | 44.8
LYDLVTEKM | °C | 56.2
AFDEAIAEL | °C | 58.4
HFDPEVYL | °C | 54.6
IWDVSVNSV | °C | 50.8
LWDSAVSHF | °C | 55.1
VFDVLDGEEM | °C | 53.4
FFDTNTSVL | °C | 55.5
FWDDAVKEV | °C | 46.6
AWDKEPVLV | °C | 57.8
IYDSVKVYF | °C | 56.8
VYDLLKTNL | °C | 59
